read-out: Early growth response protein 1 (EGR1) transcription factor, EGR1 (gene 1958); test: LTEA_HepaRG_EGR1: Life Technologies and Expression Analysis (LTEA) Assay for Early growth response protein 1 (EGR1) transcription factor using HepaRG (AID 2283490); conditions: mRNA level, 48 h; actives raise or lower the signal
Calls of active or inactive are those of the source. The calls were made as follows: active = hit-call score of the fitted dose curve at least 0.9, where 1 is the maximum; inactive = score below 0.9.
measuredMetric: AC50

The following compounds have reported results that may help.
compound	valueObserved
CC(=O)OC/C=C(\C)CCC=C(C)C	inactive
O=C(N[C@@H](Cc1ccccc1)[C@@H](O)C(=O)N1C[C@@H](O)[C@@H](O)C1)c1cc2cc(Cl)ccc2[nH]1	inactive
NC(=O)Cn1c(=O)cc(CCN2CCN(c3nccc4sccc34)CC2)c2ccc(F)cc21	inactive
COCCOCCOC	inactive
CN[C@H]1CC[C@@H](c2ccc(Cl)c(Cl)c2)c2ccc(S(N)(=O)=O)cc21	83 µM (active)

Query: Recall and state the measured AC50 for COc1cc(-c2nc(NC(=O)c3cc4cc(C)cc(C)c4n3CC(=O)O)sc2CCC2CCCCC2)c(OC)cc1Cl .
Reply: 42.2 µM (active)

Query: Recall and state the measured AC50 for OC[C@@H](O)[C@@H](O)[C@H](O)[C@H](O)CO .
Reply: inactive

Query: Recall and state the measured AC50 for COc1cc(S(=O)(=O)O)c(C)cc1N=Nc1c(O)ccc2cc(S(=O)(=O)O)ccc12 .
Reply: inactive

Query: Recall and state the measured AC50 for CCCCOC(=O)CCCCCCCCC(=O)OCCCC .
Reply: inactive

Query: Recall and state the measured AC50 for COC(=O)c1ccc(O)cc1 .
Reply: inactive

Query: Recall and state the measured AC50 for c1cc(-c2ccncc2)ccn1 .
Reply: inactive

====

read-out: Cellular tumor antigen p53 (Homo sapiens) (UniProt P04637); test: LTEA_HepaRG_TP53: Life Technologies and Expression Analysis (LTEA) Assay for Tumor Protein P53 (TP53) using HepaRG (AID 2283537); conditions: mRNA level, 48 h; actives raise or lower the signal
Sequence (P04637 whole entry, looked up): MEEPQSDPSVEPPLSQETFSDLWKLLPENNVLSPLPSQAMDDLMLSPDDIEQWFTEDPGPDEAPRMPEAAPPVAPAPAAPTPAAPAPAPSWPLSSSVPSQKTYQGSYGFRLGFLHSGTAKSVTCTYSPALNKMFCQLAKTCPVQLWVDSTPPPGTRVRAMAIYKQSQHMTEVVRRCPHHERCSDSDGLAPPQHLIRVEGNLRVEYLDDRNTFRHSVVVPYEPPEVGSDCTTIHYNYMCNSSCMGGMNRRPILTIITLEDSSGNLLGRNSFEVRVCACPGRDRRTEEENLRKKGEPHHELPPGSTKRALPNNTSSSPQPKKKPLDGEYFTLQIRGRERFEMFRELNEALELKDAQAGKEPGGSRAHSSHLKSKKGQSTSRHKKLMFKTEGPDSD
Activity calls are given as the source filed them. How the source made its calls: active means hit-call score of the fitted dose curve at least 0.9, where 1 is the maximum; inactive means score below 0.9.
Respond with a class label; see TRUE for active, FALSE for inactive

compoundStructureString	classLabel
O=C(N[C@@H](Cc1ccccc1)[C@@H](O)C(=O)N1C[C@@H](O)[C@@H](O)C1)c1cc2cc(Cl)ccc2[nH]1	TRUE
Cc1ccc(Cl)cc1	FALSE
O=C(OCCCCCOC(=O)c1ccccc1)c1ccccc1	TRUE
Oc1ccc2ccccc2c1N=Nc1ccccc1	FALSE
FC(F)(F)C(F)(F)C(F)(F)C(F)(F)C(F)(F)C(F)(F)CCI	FALSE
NC(=O)Cn1c(=O)cc(CCN2CCN(c3nccc4sccc34)CC2)c2ccc(F)cc21	TRUE

Query: What was the test verdict on CCCCCCCCCCO ?
Reply: FALSE

Query: What was the test verdict on COc1cc(-c2nc(NC(=O)c3cc4cc(C)cc(C)c4n3CC(=O)O)sc2CCC2CCCCC2)c(OC)cc1Cl ?
Reply: TRUE

Query: What was the test verdict on CN1CCCC1=O ?
Reply: FALSE

Query: What was the test verdict on CCCCCCCCCCCCCCCCCC(=O)O ?
Reply: FALSE

Query: What was the test verdict on Cc1cc(NC(=O)C(=O)O)cc(C)c1Oc1ccc(O)c2c1CCC2 ?
Reply: FALSE

Query: What was the test verdict on CCCCCCCCCCC ?
Reply: FALSE

Query: What was the test verdict on CCCCCCCCCCCCCO ?
Reply: FALSE

Query: What was the test verdict on COc1cc(S(=O)(=O)O)c(C)cc1N=Nc1c(O)ccc2cc(S(=O)(=O)O)ccc12 ?
Reply: FALSE

Query: What was the test verdict on C=CCc1ccc(O)c(OC)c1 ?
Reply: FALSE

Query: What was the test verdict on Oc1ccc2c(c1)OC[C@@H](N1CCC(O)(c3ccc(F)cc3)CC1)[C@H]2O ?
Reply: FALSE

Query: What was the test verdict on Cc1cccc(Nc2cc(Cl)nc(SCC(=O)O)n2)c1C ?
Reply: FALSE

Query: What was the test verdict on CC(=O)OC/C=C(\C)CCC=C(C)C ?
Reply: FALSE

Query: What was the test verdict on O=c1[nH]cc(F)c(=O)[nH]1 ?
Reply: FALSE

Query: What was the test verdict on CN1CCN(Cc2cc(-c3ccc4[nH]c(=O)oc4c3)co2)[C@@H](c2ccc(F)cc2)C1 ?
Reply: FALSE

Query: What was the test verdict on NCC1(Cc2noc(=O)[nH]2)CCCCC1 ?
Reply: FALSE

Query: What was the test verdict on Nc1ccc2c(c1)C(=O)c1ccccc1C2=O ?
Reply: TRUE

Query: What was the test verdict on CCCCc1ccc2c(n1)[C@@H](c1ccc(OC)cc1C[C@H](C)C(=O)O)[C@H](C(=O)O)[C@H]2c1ccc2c(c1)OCO2 ?
Reply: FALSE

====

assay: ATG_Oct_MLP_CIS: Attagene CIS-FACTORIAL HepG2 Assay for human Octamer-Binding Transcription Factor (Oct) (AID 2282993); conditions: HepG2 Attagene cis-factorial Oct reporter, mRNA; actives raise or lower the signal
Calls of active or inactive are those of the source. Rule for the calls: active = hit-call score of the fitted dose curve at least 0.9, where 1 is the maximum; inactive = score below 0.9.
Respond with a class label; see 1 (yes) for active, 0 (no) for inactive

The following compounds have reported results that may help.
compoundStructureString	classLabel
CCCc1cc(=O)[nH]c(=S)[nH]1	0 (no)
C[C@]12C=CC(=O)C=C1CC[C@@H]1[C@@H]2C(=O)C[C@@]2(C)[C@H]1CC[C@]2(O)C(=O)CO	0 (no)
C[Si]1(C)O[Si](C)(C)O[Si](C)(C)O[Si](C)(C)O1	0 (no)
COc1cc(/C=C/C(=O)CC(=O)/C=C/c2ccc(O)c(OC)c2)ccc1O	1 (yes)
CCCCCCCCCCC	0 (no)
C=CCc1ccc(O)c(OC)c1	0 (no)

# next compound below
Query: What was the test verdict on CCCCCC(=O)O ?
Reply: 0 (no)

====

read-out: Insulin Like Growth Factor 1 (IGF1), IGF1 (gene 3479); assay: LTEA_HepaRG_IGF1: Life Technologies and Expression Analysis (LTEA) Assay for Insulin Like Growth Factor 1 (IGF1) using HepaRG (AID 2283506); settings: mRNA level, 48 h; actives raise or lower the signal
Activity calls are given as the source filed them. How the source made its calls: active means hit-call score of the fitted dose curve at least 0.9, where 1 is the maximum; inactive means score below 0.9.
Respond with a class label; see active, inactive

The following compounds have reported results that may help.
compoundStructureString	classLabel
Cc1cccc(Nc2cc(Cl)nc(SCC(=O)O)n2)c1C	inactive
CC(C)c1ccc(C(=O)N=C(N)N)cc1S(C)(=O)=O	active
COC(=O)c1ccc(O)cc1	inactive
CCCCCCCCCCCCCO	inactive

Query: What was the test verdict on COc1cc(-c2nc(NC(=O)c3cc4cc(C)cc(C)c4n3CC(=O)O)sc2CCC2CCCCC2)c(OC)cc1Cl ?
Reply: active

Query: What was the test verdict on Cc1cc(=O)[nH]c(=S)[nH]1 ?
Reply: inactive

Query: What was the test verdict on CC(=O)OC/C=C(\C)CCC=C(C)C ?
Reply: inactive

Query: What was the test verdict on O=C(N[C@@H](Cc1ccccc1)[C@@H](O)C(=O)N1C[C@@H](O)[C@@H](O)C1)c1cc2cc(Cl)ccc2[nH]1 ?
Reply: inactive

Query: What was the test verdict on CC1=C(/C=C/C(C)=C/C=C/C(C)=C/CO)C(C)(C)CCC1 ?
Reply: active

Query: What was the test verdict on Nc1ccccc1N ?
Reply: active

Query: What was the test verdict on CCCCOC(=O)CCCCCCCCC(=O)OCCCC ?
Reply: inactive

Query: What was the test verdict on CCCCCCCCCCCCCCCCCC(=O)O ?
Reply: inactive

====

Assay: CCTE_Shafer_MEA_dev_burst_rate: CCTE's Neural Network Formation Assay for Burst Rate, Shafer Lab (AID 2284042)
Procedure: CCTE_Shafer_MEA_dev assay is conducted using Axion Biosystems 48 well microelectrode array (MEA) plates and Maestro recording system. Each well of the MEA plate contains a grid of 16 microelectrodes embedded in the culture surface. Electrically active cells, such as neurons, can be cultured over the electrodes, and electrical activity in these cells can be recorded extracellularly. […]
Calls of active or inactive are those of the source. How the source made its calls: active means hit-call score of the fitted dose curve at least 0.9, where 1 is the maximum; inactive means score below 0.9.
Respond with a class label; see active, inactive

The following molecules have reported results that may help.
compoundStructureString	classLabel
C[Si]1(C)O[Si](C)(C)O[Si](C)(C)O[Si](C)(C)O1	inactive
Cc1cc(=O)[nH]c(=S)[nH]1	inactive

Query: What was the test verdict on CCCc1cc(=O)[nH]c(=S)[nH]1 ?
Reply: inactive

Query: What was the test verdict on CC(C)c1ccc(C(=O)N=C(N)N)cc1S(C)(=O)=O ?
Reply: inactive

Query: What was the test verdict on FC(F)(F)C(F)(F)C(F)(F)C(F)(F)C(F)(F)C(F)(F)CCI ?
Reply: inactive

Query: What was the test verdict on O=c1[nH]cc(F)c(=O)[nH]1 ?
Reply: active

====

assay: ATG_NRF2_ARE_CIS: Attagene CIS-FACTORIAL HepG2 Assay for human Nuclear Factor Erythroid 2 Related Factor 2 (NFR2) response to Antioxidant Response Elements (ARE) (AID 2282992); conditions: HepG2 Attagene ARE/NRF2 reporter, transcription factor activity; actives raise or lower the signal
Calls of active or inactive are those of the source. How the source made its calls: active means hit-call score of the fitted dose curve at least 0.9, where 1 is the maximum; inactive means score below 0.9.
Respond with a class label; see 1 (active), 0 (inactive)

The following compounds have reported results that may help.
compound	classLabel
c1cc(-c2ccncc2)ccn1	0
C1CCC(SSC2CCCCC2)CC1	1
Cc1ccc(C)c(O)c1C	0
CC(=O)OCCOCCOCCOC(C)=O	0
Clc1cc(Cl)c(Cl)cc1Cl	0
NCCO	0
CCCCN(CCCC)CCCC	0
Cc1cc(NC(=O)C(=O)O)cc(C)c1Oc1ccc(O)c2c1CCC2	0

Query: What was the test verdict on CCCCCCCCCCCCCO ?
Reply: 1

Query: What was the test verdict on Nc1nc(N)c2nc(CNc3ccc(C(=O)N[C@@H](CCC(=O)O)C(=O)O)cc3)cnc2n1 ?
Reply: 0

Query: What was the test verdict on C[C@]12C=CC(=O)C=C1CC[C@@H]1[C@@H]2C(=O)C[C@@]2(C)[C@H]1CC[C@]2(O)C(=O)CO ?
Reply: 0

Query: What was the test verdict on O=C(N[C@@H](Cc1ccccc1)[C@@H](O)C(=O)N1C[C@@H](O)[C@@H](O)C1)c1cc2cc(Cl)ccc2[nH]1 ?
Reply: 1

Query: What was the test verdict on Cc1nc(-c2ccc3c(c2)CCN(CCC2CCC(NC(=O)/C=C/c4ccc(F)cc4)CC2)CC3)no1 (stereo not drawn) ?
Reply: 0
